Overview of reported yeast fitness across a group of variants:
B1: tRNA (parent)
chain: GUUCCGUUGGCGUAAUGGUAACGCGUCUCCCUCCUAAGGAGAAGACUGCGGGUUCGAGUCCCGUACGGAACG

- Variants of: B1
- assayText: yeast fitness relative to wild type (ratio to wild type); higher = fitter; tRNA-Arg(CCU), competitive growth, 37 C, YPD
This sample holds only a part of the variants without activity.

[[record]]
sequencechain = "GUUCCGUUGGCGUAAUGGUUGCGCGUCUCCCUCCUAAGGAGAAGACUGCGGGUUCGAGUCUCGUACGGAACG [A20U A21G C61U]"
observedmeasurement = "≤ 0.5"

[[record]]
sequencechain = "GUUCCGUUGGCGUUAUGGUAACGCGUCUCCCUCCUAAGGAGAAGCCCGCGGGUUUGAGUCCCGUCCGGCACG [A14U A45C U47C C55U A65C A69C]"
observedmeasurement = "≤ 0.5"

[[record]]
sequencechain = "GUUCCGUUGGCGUAAUGGUAACGCGUCUCUGUCGUAAGGAGAAGACUGCGGGUUCGAGUCCCGUAAGGAACG [C30U C31G C34G C66A]"
observedmeasurement = "≤ 0.5"

[[record]]
sequencechain = "GUCCCGUUGGCGUUCUGGUAACGCGUCUCCGUCCUAAGGAGAUGACUGCGGGUUCGAGUCCCGUACGGAACG [U3C A14U A15C C31G A43U]"
observedmeasurement = "≤ 0.5"

[[record]]
sequencechain = "GUUCCGUUGGCGUAAUGAUAACGCGUCUCUCUCCUAAGGGGAAGACUGCGGGUUCGAGUCCCGUACGCAACG [G18A C30U A40G G68C]"
observedmeasurement = "≤ 0.5"

[[record]]
sequencechain = "GUUCCGUUGGGGUAAUGGUAACGAGUCGCCCUCCUGAGGAGAAGACUGCGGGUUCGAGUCCCAUACGGAACG [C11G C24A U28G A36G G63A]"
observedmeasurement = "≤ 0.5"


What value of yeast fitness has been recorded for this entry: GUUCCGUUGGGGUAAUGGUAACGCGUCUCCCUUCUGAGGAGAAGACUGCGGGUUUGAGUCCCGUACGGAACG [C11G C33U A36G C55U]
≤ 0.5

Please look up its yeast fitness: GUUCCGUUGGCGUAAUGGUAACGCCUCUCCCUUCUAAGGAGAAGACGGUGGCUUCGAGUCCCGUACGGAACG [G25C C33U U47G C49U G52C]
≤ 0.5

Dear colleague, I am looking for the recorded yeast fitness of the following variant: GUUCCGUUGGCGUAAUGGUAACGCGUCUCCCUCGUAAGGAGAAGACUGCGGGCUGGAGUCCCGUACGGAACG [C34G U53C C55G]
≤ 0.5

Entry under review: GUUCCGUUGGCGUCAUGGGAACGCGUCUCCCUCCUAAGGAGAACACUGCGGGUUCGAGUCCGGUACGGAACG [A14C U19G G44C C62G] . Reported yeast fitness?
≤ 0.5

I would be grateful if you could share the reported yeast fitness for GUUCCGGUGGCGUAAUGGUAACGCGUCUCCCUCCUAAGGACAAGACUGCGGGUUCGAGUCCCGUACGGCACG [U7G G41C A69C] .
≤ 0.5

What value of yeast fitness has been reported for the following variant? GUUCCGUUGGCGUAAUGGUAACGCGUCUCCCUCCUAAGGAGACGUCUGCGGGUUCGAGUCAUGUAUGGAACG [A43C A45U C61A C62U C66U]
≤ 0.5

Where do the numbers come from? From the RNAGym collection of RNA variant scans (doi:10.1126/science.aae0568).
